- System: p-CREB (phosphorylated cAMP response-element binding protein) in human whole blood
- Test description: p-CREB assay in human whole blood by flow cytometry (NECA stimulation, CD4 staining)
- Assay type: cell-based
- Experimental context: Homo sapiens, replicate values separated by /
Measured quantity: IC50 (nM)
Write the answer as a number in nM, unit excluded.

Use these answered entries as a reference point.
>  <Substance smiles>
Cc1cc(-c2c(OCc3ccc(=O)n(C)n3)nc(N)nc2-c2ccc(F)cc2)cc(C(F)F)n1

>  <System under test>
p-CREB (phosphorylated cAMP response-element binding protein) in human whole blood

>  <Measured quantity>
IC50

>  <Test result>
424

$$$$
>  <Substance smiles>
Cc1cc(-c2c(OCc3cccc(-c4nn[nH]n4)n3)nc(N)nc2-c2ccc(F)cc2)cc(C(F)F)n1

>  <System under test>
p-CREB (phosphorylated cAMP response-element binding protein) in human whole blood

>  <Measured quantity>
IC50

>  <Test result>
201

$$$$

Here is another compound to look at.
*Q* Look at this compound and give its reported IC50. "Cc1cc(-c2c(OCc3cccc(N(CCO)CCO)n3)nc(N)nc2-c2ccc(F)cc2)cc(C(F)F)n1"
*A* 692

====

- System under test: Adenosine A2A receptor (Homo sapiens)
- Sequence (P29274 whole entry): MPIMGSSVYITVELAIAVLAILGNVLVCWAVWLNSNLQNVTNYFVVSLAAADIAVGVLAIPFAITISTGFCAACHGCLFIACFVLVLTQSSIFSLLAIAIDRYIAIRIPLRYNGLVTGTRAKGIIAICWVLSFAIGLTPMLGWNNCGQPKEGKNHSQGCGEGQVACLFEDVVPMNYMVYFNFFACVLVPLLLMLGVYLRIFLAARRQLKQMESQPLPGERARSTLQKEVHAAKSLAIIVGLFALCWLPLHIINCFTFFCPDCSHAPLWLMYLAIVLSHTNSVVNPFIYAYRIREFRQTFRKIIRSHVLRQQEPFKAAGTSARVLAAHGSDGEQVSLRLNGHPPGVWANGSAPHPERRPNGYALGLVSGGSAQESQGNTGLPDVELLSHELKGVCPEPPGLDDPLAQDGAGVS
- Test description: cAMP assay in 293A cells stably expressing the adenosine A2A receptor (CGS21680 stimulation, HTRF)
- Assay type: cell-based
- Set-up: expressed in transfected cells; host or cells: 293A cells (Invitrogen, Cat# R705-07) infected with A2A-expressing lentivirus (custom packaged by Biosettia), puromycin selected
- Experimental context: 293A-A2AR cells, 0.1% BSA, 1 uM CGS; read-out: cAMP (nM) 0.1% BSA, 1 uM CGS
- Procedure: A 293A cell line (Invitrogen, Cat# R705-07) stably expressing the adenosine A2A receptor was generated in house. Briefly, 293A cells were seeded in 6-well plate and infected with A2A expressing lentivirus (custom packaged by Biosettia) and selected with puromycin (1 ug/ml). […] After 1 h incubation at room temperature, plates were read in CIARIOstar plate reader (BMG Labtech) using the HTRF detection mode.
Note to self: IC50 under 2000 nM means criterion met, ties and anything higher get criterion not met.

>  <Compound>
Cc1cc(-c2c(OCc3cccc(C4(C#N)CCOCC4)n3)nc(N)nc2-c2ccc(F)cc2)cc(C(F)F)n1 [Example 275]

>  <Category label>
criterion met

$$$$
>  <Compound>
Cc1cc(-c2c(OCc3cnccn3)nc(N)nc2-c2ccc(F)cc2)cc(C(F)F)n1 [Example 273]

>  <Category label>
criterion met

$$$$

*Q* Please check: IC50 for CCc1c(COc2nc(N)nc(-c3ccc(F)cc3)c2-c2cc(C)nc(C(F)F)c2)nnn1CC(C)(C)C(=O)O [Example 302] , strictly under 2000 nM or not?
*A* criterion not met

*Q* What about Cc1cc(-c2c(OCc3ccn(CC4CC4)n3)nc(N)nc2-c2ccc(F)cc2)cc(C(F)F)n1 [Example 214] ?
*A* criterion met

*Q* What about CCc1nn(C[C@@H](O)CO)nc1COc1nc(N)nc(-c2ccc(F)cc2)c1-c1cc(C)nc(C(F)F)c1 [Example 288] ?
*A* criterion not met

*Q* What about Cc1cc(-c2c(OCC3CC(C(=O)O)C3)nc(N)nc2-c2ccc(F)cc2)cc(C(F)F)n1 (stereo not shown) [Example 325] ?
*A* criterion not met

*Q* What about CCn1ccc(COc2nc(N)nc(-c3ccc(F)cc3)c2-c2cc(C)nc(C(F)F)c2)n1 [Example 228] ?
*A* criterion met

*Q* What about CCc1nn(CC(=O)O)nc1COc1nc(N)nc(-c2ccc(F)cc2)c1-c1cc(C)nc(C(F)F)c1 [Example 231] ?
*A* criterion not met

*Q* What about Cc1cc(-c2c(OCCn3cc(C(=O)O)ccc3=O)nc(N)nc2-c2ccc(F)cc2)cc(C(F)F)n1 [Example 336] ?
*A* criterion not met

*Q* What about Cc1cc(-c2c(OCCC(C)(C)C(=O)O)nc(N)nc2-c2cccc(C#N)c2C)cc(C(F)F)n1 [Example 250] ?
*A* criterion not met

*Q* What about CCc1nnn(CC(=O)O)c1COc1nc(N)nc(-c2ccc(F)cc2)c1-c1cc(C)nc(C(F)F)c1 [Example 233] ?
*A* criterion not met

*Q* What about CCc1c(COc2nc(N)nc(-c3cccc(C#N)c3C)c2-c2cc(C)nc(C(F)F)c2)nnn1CC [Example 256] ?
*A* criterion not met

*Q* What about CCc1nn(CC)nc1COc1nc(N)nc(-c2cccc(C#N)c2C)c1-c1cc(C)nc(C(F)F)c1 [Example 254] ?
*A* criterion not met

*Q* What about CCn1cnc(COc2nc(N)nc(-c3ccc(F)cc3)c2-c2cc(C)nc(C(F)F)c2)n1 [Example 221] ?
*A* criterion met

*Q* What about Cc1cc(-c2c(OCc3nccn3CC(=O)O)nc(N)nc2-c2ccc(F)cc2)cc(C(F)F)n1 [Example 249] ?
*A* criterion not met

*Q* What about Cc1cc(-c2c(OCc3ccc(F)c(C(C)(C)C(=O)O)c3)nc(N)nc2-c2ccc(F)cc2)cc(C(F)F)n1 [Example 367] ?
*A* criterion not met

*Q* What about Cc1cc(-c2c(OCc3ncc(C(C)(C)O)s3)nc(N)nc2-c2ccc(F)cc2)cc(C(F)F)n1 [Example 371] ?
*A* criterion not met

*Q* What about Cc1cc(-c2c(OCc3cccc(C(=O)O)n3)nc(N)nc2-c2ccc(F)cc2)cc(C(F)F)n1 [Example 274] ?
*A* criterion not met

*Q* What about Cc1cc(-c2c(OCc3nccn3CC(C)(C)O)nc(N)nc2-c2cccc(C#N)c2C)cc(C(F)F)n1 [Example 236] ?
*A* criterion not met

*Q* What about Cc1cc(-c2c(OCc3ccc(C)c(C(C)(C)C(=O)O)n3)nc(N)nc2-c2ccc(F)cc2)cc(C(F)F)n1 [Example 377] ?
*A* criterion not met

*Q* What about Cc1cc(-c2c(OCc3cccc([C@@H]4C[C@H]4C(=O)O)n3)nc(N)nc2-c2ccc(F)cc2)cc(C(F)F)n1 (relative stereo) [Example 353] ?
*A* criterion met

*Q* What about CCc1nnn(CC(C)(C)O)c1COc1nc(N)nc(-c2ccc(F)cc2)c1-c1cc(C)nc(C(F)F)c1 [Example 253] ?
*A* criterion not met
